B1: HDV Ribozyme (parent)
chain: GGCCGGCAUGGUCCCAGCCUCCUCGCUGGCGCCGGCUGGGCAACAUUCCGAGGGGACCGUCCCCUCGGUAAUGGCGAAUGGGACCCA

- Variants of: B1
- test_method_notes: self-cleavage, relative activity (ratio to wild type); higher = more cleavage; co-transcriptional
reported_property: self-cleavage
Format: numeric value only, no unit, no commentary.

Inquiry: Dear colleague, I am looking for the recorded self-cleavage of the following variant: G40U G67U
Reply text: 0.757

Inquiry: Dear colleague, I am looking for the recorded self-cleavage of the following variant: C41A C84U
Reply text: 0.388

Inquiry: Dear colleague, I am looking for the recorded self-cleavage of the following variant: G5U C18U
Reply text: 0.0504

Inquiry: Dear colleague, I am looking for the recorded self-cleavage of the following variant: U23A G38C
Reply text: 0.192

Inquiry: Dear colleague, I am looking for the recorded self-cleavage of the following variant: G2A C32G
Reply text: 0.0441

Inquiry: Dear colleague, I am looking for the recorded self-cleavage of the following variant: C18A U60G
Reply text: 0

Inquiry: Dear colleague, I am looking for the recorded self-cleavage of the following variant: G29C C57A
Reply text: 0.125

Inquiry: Dear colleague, I am looking for the recorded self-cleavage of the following variant: C7A A78C
Reply text: 0.0554

Inquiry: Dear colleague, I am looking for the recorded self-cleavage of the following variant: C13G G54A
Reply text: 0.0604

Inquiry: Dear colleague, I am looking for the recorded self-cleavage of the following variant: C24A G73U
Reply text: 0.288

Inquiry: Dear colleague, I am looking for the recorded self-cleavage of the following variant: G28C G40C
Reply text: 0.113
